Could you please report measured MIC for the items listed next?
Tested on: Staphylococcus aureus
protocol.details: Antibacterial activity against Staphylococcus aureus ATCC 29213 incubated for 18 hrs by serial two-fold dilution method
Assay type: functional
One number for each entry, in µg/mL.

# count of solved cases: 3
Problem: // query MIC value for entry `C/C(O)=C1\C(=O)[C@@H]2Cc3c([nH]c4ccccc34)[C@@H](c3ccc(-c4cc(F)c(F)c(F)c4)cc3)N2C1=O`
Solution: 0.5

Problem: // query MIC value for entry `C/C(O)=C1\C(=O)[C@@H]2Cc3c(n(CC4CC4)c4ccccc34)[C@@H](c3ccc(-c4ccc(F)cc4)cc3)N2C1=O`
Solution: 0.125

Problem: // query MIC value for entry `C/C(O)=C1\C(=O)[C@@H]2Cc3c([nH]c4ccccc34)[C@@H](c3ccc(F)cc3F)N2C1=O`
Solution: 8

Continuing:
Problem: // query MIC value for entry `C/C(O)=C1\C(=O)[C@@H]2Cc3c([nH]c4ccccc34)[C@@H](c3ccc(-c4ccc(C(F)(F)F)cc4)o3)N2C1=O`
Solution: 0.25

###

protocol.details: AUC(0 to t) in ICR mouse at 1 mg/kg, iv
Assay type: ADME, organism-based
measurement.setup: in vivo
reported.property: AUC(0-t) (ng·h/mL)
Numbers only, in ng·h/mL.

Problem: // query AUC(0-t) value for entry `C/C(O)=C1\C(=O)[C@@H]2Cc3c([nH]c4ccccc34)[C@@H](c3ccc(-c4cc(F)cc(F)c4)cc3)N2C1=O`
Solution: 4240

###

protocol.details: Half-life in ICR mouse at 5 mg/kg, po
Assay type: ADME, organism-based
measurement.setup: in vivo
reported.property: half-life (h)
Give bare numbers, in h.

Problem: // query half-life value for entry `C/C(O)=C1\C(=O)[C@@H]2Cc3c([nH]c4ccccc34)[C@@H](c3ccc(-c4cc(F)cc(F)c4)cc3)N2C1=O`
Solution: 7.91

###

protocol.details: MRT(0 to t) in ICR mouse at 1 mg/kg, iv
Type: ADME, organism-based
measurement.setup: in vivo
reported.property: MRT last (h)
One number for each entry, in h.

Problem: // query MRT last value for entry `C/C(O)=C1\C(=O)[C@@H]2Cc3c([nH]c4ccccc34)[C@@H](c3ccc(-c4cc(F)cc(F)c4)cc3)N2C1=O`
Solution: 10.4

###

protocol.details: AUC(0 to infinity) in ICR mouse at 5 mg/kg, po
Assay type: ADME, organism-based
measurement.setup: in vivo
reported.property: AUC(0-inf)
Form field: result (number plus unit)

Problem: // query AUC(0-inf) value for entry `C/C(O)=C1\C(=O)[C@@H]2Cc3c([nH]c4ccccc34)[C@@H](c3ccc(-c4cc(F)cc(F)c4)cc3)N2C1=O`
Solution: 2570 ng·h/mL

###

protocol.details: Hemolytic activity in rabbit RBC assessed as hemolysis rate at 23.5 ug/ml incubated for 1 hr by microplate reader assay
Format: toxicity, cell-based, Oryctolagus cuniculus, Erythrocyte
measurement.setup: rabbit red blood cells (erythrocytes), at 23.5 µg/mL, read-out: Activity
reported.property: hemolysis at 1 h, 23.5 ug/ml

Problem: // query hemolysis at 1 h, 23.5 ug/ml value for entry `C/C(O)=C1\C(=O)[C@@H]2Cc3c([nH]c4ccccc34)[C@@H](c3ccc(-c4cc(F)cc(F)c4)cc3)N2C1=O`
Solution: < 5%
